Molecular target: T1, IL-18 receptor (IL-18Rαβ) on cells (UniProt Q13478 19-541; O95256 20-599, limits assumed)
T1 sequence (looked up) 1: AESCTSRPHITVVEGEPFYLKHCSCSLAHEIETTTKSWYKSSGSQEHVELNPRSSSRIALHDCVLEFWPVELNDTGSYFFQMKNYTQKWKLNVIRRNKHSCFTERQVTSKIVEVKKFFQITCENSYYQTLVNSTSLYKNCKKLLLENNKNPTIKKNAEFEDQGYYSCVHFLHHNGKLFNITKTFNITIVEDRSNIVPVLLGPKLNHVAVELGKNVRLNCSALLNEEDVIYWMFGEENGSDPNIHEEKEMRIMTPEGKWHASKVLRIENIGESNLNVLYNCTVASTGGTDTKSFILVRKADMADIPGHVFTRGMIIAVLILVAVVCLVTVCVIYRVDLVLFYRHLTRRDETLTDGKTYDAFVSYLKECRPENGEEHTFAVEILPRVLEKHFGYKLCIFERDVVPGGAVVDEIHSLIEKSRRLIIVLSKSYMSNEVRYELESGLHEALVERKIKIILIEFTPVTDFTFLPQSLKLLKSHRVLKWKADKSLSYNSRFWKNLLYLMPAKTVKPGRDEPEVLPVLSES
T1 sequence (looked up) 2: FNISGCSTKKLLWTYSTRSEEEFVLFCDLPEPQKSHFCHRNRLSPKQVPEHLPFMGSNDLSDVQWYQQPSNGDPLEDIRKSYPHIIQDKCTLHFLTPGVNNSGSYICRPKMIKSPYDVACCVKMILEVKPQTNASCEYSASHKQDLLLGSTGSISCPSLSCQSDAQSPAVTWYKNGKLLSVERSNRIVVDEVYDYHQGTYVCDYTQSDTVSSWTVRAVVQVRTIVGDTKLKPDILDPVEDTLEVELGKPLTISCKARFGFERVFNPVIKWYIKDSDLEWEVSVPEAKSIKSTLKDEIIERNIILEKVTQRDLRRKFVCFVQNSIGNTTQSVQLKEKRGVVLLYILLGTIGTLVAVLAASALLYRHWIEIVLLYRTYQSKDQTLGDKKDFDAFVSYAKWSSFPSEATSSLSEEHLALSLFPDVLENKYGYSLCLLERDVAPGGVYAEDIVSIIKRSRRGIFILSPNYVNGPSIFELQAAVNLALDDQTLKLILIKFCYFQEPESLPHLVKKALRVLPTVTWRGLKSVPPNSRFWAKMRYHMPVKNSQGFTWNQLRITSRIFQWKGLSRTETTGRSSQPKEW
Experiment: cell-based or functional assay
propertyLabel: HEK-Blue IL-18R reporter EC50 (pM)

# binder, propertyLabel, testValue
data = [
    ("C151 (ligand) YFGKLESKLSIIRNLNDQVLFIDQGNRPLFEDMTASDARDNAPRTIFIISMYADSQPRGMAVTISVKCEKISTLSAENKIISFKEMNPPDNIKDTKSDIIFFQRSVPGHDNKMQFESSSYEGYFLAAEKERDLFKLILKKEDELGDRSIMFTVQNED", "HEK-Blue IL-18R reporter EC50", 13.1),
    ("C141 (ligand) GYFGKLKSKLSIIRNLNDQVLFIDQGNRPLFEDMTDSDARDNAPRTIFIISMYADSQPRGMAVAISVKCEKISTLSAENKIISFKEMNPPDNIKDTKSDIIFFQRSVPGHDNKMQFESSSYEGYFLAAEKERDLFKLILKKEDELGDRSIMFTVQNED", "HEK-Blue IL-18R reporter EC50", 1.68),
]
